Quick list: self-aminoacylation per entry.
- Tested on: biotinyl-Ile-oxazolone
- method.summary: self-aminoacylation, catalytic enhancement (BIO) (fold over background); higher = more active; k-Seq, kA / k0A0; sequences stand for … in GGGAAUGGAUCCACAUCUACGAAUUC…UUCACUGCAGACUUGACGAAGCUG
Fewer inactive variants are shown than the library holds.
Field format: numeric only.

Consider the reported self-aminoacylation for these sequences:
biosequence: CUCCACUUCAAGCAAUCGGUC [Fam1B.1 aminoacylation ribozyme variant]
property.label: self-aminoacylation
quantitative.result: 1.37
//
biosequence: CCACACUUCAAACAAUCGCUC [Fam1B.1 aminoacylation ribozyme variant]
property.label: self-aminoacylation
quantitative.result: 1.1
//
biosequence: AAGUUUGAUAAUAGUCGGAAG [Fam3.1 aminoacylation ribozyme variant]
property.label: self-aminoacylation
quantitative.result: 0.514
//
biosequence: AAGUUUGCUGAUAGUCGCCAG [Fam3.1 aminoacylation ribozyme variant]
property.label: self-aminoacylation
quantitative.result: 1.38
//
biosequence: AUCCACCUAGGUCUUCGGGUG [Fam2.2 aminoacylation ribozyme variant]
property.label: self-aminoacylation
quantitative.result: 4.4

Item under review: CCACACUUCAGGCAAUCGGUA [Fam1B.1 aminoacylation ribozyme variant] . Reported self-aminoacylation?
1.24

Item under review: ACACACUUCAACCAAUCGGUC [Fam1B.1 aminoacylation ribozyme variant] . Reported self-aminoacylation?
1.69

Item under review: CCACACUUCUAUCAAUCGGUC [Fam1B.1 aminoacylation ribozyme variant] . Reported self-aminoacylation?
0.657

====

- Tested on: biotinyl-Ile-oxazolone
- method.summary: self-aminoacylation, catalytic enhancement (BIO) (fold over background); higher = more active; k-Seq, kA / k0A0; sequences stand for … in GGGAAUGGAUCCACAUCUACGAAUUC…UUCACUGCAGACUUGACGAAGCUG
Variants at the floor of the assay were thinned out.
property.label: self-aminoacylation
Field format: numeric only.

Consider the reported self-aminoacylation for these sequences:
biosequence: AUUCACCUAGCUCAUCGGGCG [Fam2.2 aminoacylation ribozyme variant]
self-aminoacylation: 2.26
//
biosequence: AUUACCCUGGACAUCGAGUGU [Fam2.1 aminoacylation ribozyme variant]
self-aminoacylation: 1.51
//
biosequence: AUUCCCCGGGUCAUCGAGUGA [Fam2.1 aminoacylation ribozyme variant]
self-aminoacylation: 3.32

Lookup: self-aminoacylation / biotinyl-Ile-oxazolone / AUUUCCCUGGUCAUCCAGUGA [Fam2.1 aminoacylation ribozyme variant]
4.3

Lookup: self-aminoacylation / biotinyl-Ile-oxazolone / AUGACCCUGGUCCUCGAGUGA [Fam2.1 aminoacylation ribozyme variant]
1.88

====

- Test system: biotinyl-Met-oxazolone
- method.summary: self-aminoacylation, catalytic enhancement (BMO) (fold over background); higher = more active; k-Seq, kA / k0A0; sequences stand for … in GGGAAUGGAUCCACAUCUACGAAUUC…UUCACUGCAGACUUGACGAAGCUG
This sample holds only a part of the variants without activity.
property.label: self-aminoacylation

biosequence: AAUUUUGCUUAUAGUCGCAAG [Fam3.1 aminoacylation ribozyme variant]
assay.target: biotinyl-Met-oxazolone
self-aminoacylation: 2.17

Item under review: AUUCACACAGGUCAUCGGGUG [Fam2.2 aminoacylation ribozyme variant] . Reported self-aminoacylation?
5.6

Item under review: ACCCACCUAGGUCAUCGGGUG [Fam2.2 aminoacylation ribozyme variant] . Reported self-aminoacylation?
5.93

====

- System: biotinyl-Phe-oxazolone
- method.summary: self-aminoacylation, catalytic enhancement (BFO) (fold over background); higher = more active; k-Seq, kA / k0A0; sequences stand for … in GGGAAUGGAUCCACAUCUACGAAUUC…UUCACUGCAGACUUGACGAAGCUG
Variants at the floor of the assay were thinned out.
Quick list: self-aminoacylation per entry.
Field format: numeric only.

biosequence: CUACAUGAAACAAUCGGUCUG [Fam1A.1 aminoacylation ribozyme variant]
property.label: self-aminoacylation
quantitative.result: 0.716

Lookup: self-aminoacylation / biotinyl-Phe-oxazolone / AUUCAUCUAGGUCAUCGGCUG [Fam2.2 aminoacylation ribozyme variant]
4.5

Lookup: self-aminoacylation / biotinyl-Phe-oxazolone / AUUACCCUGGUCAUCGAGCCA [Fam2.1 aminoacylation ribozyme variant]
2.92

Lookup: self-aminoacylation / biotinyl-Phe-oxazolone / CCACACUUCAGGCAAUCGGUC [Fam1B.1 aminoacylation ribozyme variant]
1.47

Lookup: self-aminoacylation / biotinyl-Phe-oxazolone / AUUACCCUAGUCAUCGAGUUA [Fam2.1 aminoacylation ribozyme variant]
1.05

Lookup: self-aminoacylation / biotinyl-Phe-oxazolone / CUUACCCUAGUCAUCGAGUGA [Fam2.1 aminoacylation ribozyme variant]
5.25

Lookup: self-aminoacylation / biotinyl-Phe-oxazolone / CCACACUUCAAGCAAUCGUUG [Fam1B.1 aminoacylation ribozyme variant]
1.26

Lookup: self-aminoacylation / biotinyl-Phe-oxazolone / AUUGACCUAUGUCAUCGGGUG [Fam2.2 aminoacylation ribozyme variant]
28.4

Lookup: self-aminoacylation / biotinyl-Phe-oxazolone / CUACUACAAACAAUAGGUCUG [Fam1A.1 aminoacylation ribozyme variant]
0.827

Lookup: self-aminoacylation / biotinyl-Phe-oxazolone / CUACUUCAAACAACCGGUCUU [Fam1A.1 aminoacylation ribozyme variant]
0.875

Lookup: self-aminoacylation / biotinyl-Phe-oxazolone / AUUUCCCUGGUCAUCGAGUGG [Fam2.1 aminoacylation ribozyme variant]
12

Lookup: self-aminoacylation / biotinyl-Phe-oxazolone / CUUCUUCAAACAAUCUGUCUG [Fam1A.1 aminoacylation ribozyme variant]
2.27

Lookup: self-aminoacylation / biotinyl-Phe-oxazolone / AUUACCCUGGUCAUCGAAUGA [Fam2.1 aminoacylation ribozyme variant]
0.974

Lookup: self-aminoacylation / biotinyl-Phe-oxazolone / AUUCGCCUAGGUCAACGGGUG [Fam2.2 aminoacylation ribozyme variant]
27.8

Lookup: self-aminoacylation / biotinyl-Phe-oxazolone / AAGUUUGCUAAUUGUCGCUAG [Fam3.1 aminoacylation ribozyme variant]
0.848

Lookup: self-aminoacylation / biotinyl-Phe-oxazolone / CCACAGUUCAAGCCAUCGGUC [Fam1B.1 aminoacylation ribozyme variant]
1.14

Lookup: self-aminoacylation / biotinyl-Phe-oxazolone / AUAACCCUGAUCAUCGAGUGA [Fam2.1 aminoacylation ribozyme variant]
20.9

====

- System: biotinyl-Phe-oxazolone
- method.summary: self-aminoacylation, catalytic enhancement (BFO) (fold over background); higher = more active; k-Seq, kA / k0A0; sequences stand for … in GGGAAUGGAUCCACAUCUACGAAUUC…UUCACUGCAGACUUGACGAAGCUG
Variants at the floor of the assay were thinned out.
property.label: self-aminoacylation

biosequence: ACACACUUCAAGCAAUGGGUC [Fam1B.1 aminoacylation ribozyme variant]
property.label: self-aminoacylation
result: 1.04

biosequence: CCGCACUUCAAGCAAUGGGUC [Fam1B.1 aminoacylation ribozyme variant]
property.label: self-aminoacylation
result: 1.13

biosequence: AAGUUUACUAAUAUUCGCAAG [Fam3.1 aminoacylation ribozyme variant]
property.label: self-aminoacylation
result: 2.42

biosequence: AUUCACCUAGGACAUCGUGUG [Fam2.2 aminoacylation ribozyme variant]
property.label: self-aminoacylation
result: 3.71

biosequence: AUUACCCUGGUUAUUGAGUGA [Fam2.1 aminoacylation ribozyme variant]
property.label: self-aminoacylation
result: 102

Item under review: AUUACCCUUGUCAUCGAGUGG [Fam2.1 aminoacylation ribozyme variant] . Reported self-aminoacylation?
1.98

Item under review: CCACACUUCAACCACUCGGUC [Fam1B.1 aminoacylation ribozyme variant] . Reported self-aminoacylation?
0.849

Item under review: AUUACCCCAGUCAUCGAGUGA [Fam2.1 aminoacylation ribozyme variant] . Reported self-aminoacylation?
24.9

====

- Test system: biotinyl-Phe-oxazolone
- method.summary: self-aminoacylation, catalytic enhancement (BFO) (fold over background); higher = more active; k-Seq, kA / k0A0; sequences stand for … in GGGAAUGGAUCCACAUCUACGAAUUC…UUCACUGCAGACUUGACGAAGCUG
Variants at the floor of the assay were thinned out.
Label T when self-aminoacylation is at or above 40; otherwise label F.

biosequence: AAGUUGGCUAAUAAUCGCAAG [Fam3.1 aminoacylation ribozyme variant]
assigned.class: F

biosequence: AUUCACCUGUGUCAUCGGGUG [Fam2.2 aminoacylation ribozyme variant]
assigned.class: F

biosequence: AUUUCCCUGGUUAUCGAGUGA [Fam2.1 aminoacylation ribozyme variant]
assigned.class: T

biosequence: CGACUUCAAAGAAUCGGUCUG [Fam1A.1 aminoacylation ribozyme variant]
assigned.class: F

biosequence: AUUCACCAGGGUCAUCGGGUG [Fam2.2 aminoacylation ribozyme variant]
assigned.class: T

Exam item: decide whether the reported self-aminoacylation for AUUACUCUGGUCAACGAGUGA [Fam2.1 aminoacylation ribozyme variant] is at least 40.
F

Exam item: decide whether the reported self-aminoacylation for GAGUUUGCUUAUAGUCGCAAG [Fam3.1 aminoacylation ribozyme variant] is at least 40.
F

Exam item: decide whether the reported self-aminoacylation for AAGUUUGCCAAUAGGCGCAAG [Fam3.1 aminoacylation ribozyme variant] is at least 40.
F

Exam item: decide whether the reported self-aminoacylation for AUUACCGUGGUCAUCGAGUGA [Fam2.1 aminoacylation ribozyme variant] is at least 40.
F

Exam item: decide whether the reported self-aminoacylation for AGUCGCCUAGGUCAUCGGGUG [Fam2.2 aminoacylation ribozyme variant] is at least 40.
T

Exam item: decide whether the reported self-aminoacylation for CCACGCUUCAAGCAGUCGGUC [Fam1B.1 aminoacylation ribozyme variant] is at least 40.
F

Exam item: decide whether the reported self-aminoacylation for AUUCACCUAGGGCAUUGGGUG [Fam2.2 aminoacylation ribozyme variant] is at least 40.
T

Exam item: decide whether the reported self-aminoacylation for AAGUCCGCUAAUAGUCGCAAG [Fam3.1 aminoacylation ribozyme variant] is at least 40.
T

Exam item: decide whether the reported self-aminoacylation for AUACUUCAAACAAUCGGUAUG [Fam1A.1 aminoacylation ribozyme variant] is at least 40.
F

Exam item: decide whether the reported self-aminoacylation for CCACACUUCACGCUAUCGGUC [Fam1B.1 aminoacylation ribozyme variant] is at least 40.
F

Exam item: decide whether the reported self-aminoacylation for AUUAACCUAGGUCAUCUGGUG [Fam2.2 aminoacylation ribozyme variant] is at least 40.
F

Exam item: decide whether the reported self-aminoacylation for AAGUGUGCUGAUAGUCGCAAG [Fam3.1 aminoacylation ribozyme variant] is at least 40.
F

Exam item: decide whether the reported self-aminoacylation for CUACUUCAAACAACCGUUCUG [Fam1A.1 aminoacylation ribozyme variant] is at least 40.
F
